- Test system: DND41 cells
- protocol.description: MTS cell proliferation assay (IG50), DND41
- Type: cell-based, human
- assay.conditions: Homo sapiens; DND41 cells, MTS assay, 36 hours of treatment; read-out: IG50 (growth inhibition)
readout.kind: pIC50
Value format note: pIC50 is -log10 of concentration (mol/L); just state the number.

### Prompt Any idea what its pIC50 is? The molecule is COc1ccc(C(=O)/C=C/c2ccc(O)cc2)c(O)c1 [Compound 8, 2′,4-dihydroxy-4′-methoxychalcone]
### Response 5.72

### Prompt Check O=C(/C=C/c1ccc(O)c(O)c1)c1ccc(O)cc1O [Compound C, reference compound] too.
### Response 5.11

### Prompt Check O=c1c(O)c(-c2ccccc2)oc2cc(O)cc(O)c12 [Compound H, 3,5,7-trihydroxy-2-phenylchromen-4-one, reference compound] too.
### Response 4.65

### Prompt Check CC(C)=CCc1c(O)ccc(C(=O)/C=C/c2ccc(O)cc2)c1O [Compound B, reference compound] too.
### Response 4.86

###

Answer each item with its documented IC50.
- System: DND41 cells
- protocol.description: MTS cell proliferation assay (IG50), DND41
- Type: cell-based, human
- assay.conditions: Homo sapiens; 36-hour treatments in DND41 cells; mean of triplicate experiments ± S.D.; Table 1; read-out: IG50 S.D.
The figure you give is taken to be in µM; do not add the unit.

### Prompt What IC50 appears in the records for this compound with DND41 cells? O=C(/C=C/c1ccc(O)c(O)c1)c1ccc(O)cc1O [Compound C, reference compound]
### Response 7.79

### Prompt Check O=c1c(O)c(-c2ccccc2)oc2cc(O)cc(O)c12 [Compound H, 3,5,7-trihydroxy-2-phenylchromen-4-one, reference compound] too.
### Response 22.6

###

- System: DND41 cells
- protocol.description: MTS cell proliferation assay (IG50), DND41
- Type: cell-based, human
- assay.conditions: Homo sapiens; 36-hour treatments in DND41 cells; mean of triplicate experiments ± S.D.; Table 1; read-out: IG50 S.D.
readout.kind: IC50

### Prompt Any idea what its IC50 is? The compound is CC(C)=CCc1c(O)ccc(C(=O)/C=C/c2ccc(O)cc2)c1O [Compound B, reference compound]
### Response 13.9 µM

### Prompt Check O=C1c2c(O)cc(O)cc2O[C@H](c2ccc(O)c(O)c2)[C@H]1O [Compound A, reference compound] too.
### Response > 50 µM

### Prompt Check COc1c2occc2cc2ccc(=O)oc12 [Compound D, 9-methoxyfuran[3,2-g]chromen-7-one, reference compound] too.
### Response > 50 µM

### Prompt Check CC(C)(O)C1Cc2c(ccc3ccc(=O)oc23)O1 (stereo in doubt) [Compound E, reference compound] too.
### Response > 50 µM
